# TARGET SYSTEM: human apelin receptor (Homo sapiens)
# Construct: expressed in transfected cells
# Sequence (P35414 whole entry): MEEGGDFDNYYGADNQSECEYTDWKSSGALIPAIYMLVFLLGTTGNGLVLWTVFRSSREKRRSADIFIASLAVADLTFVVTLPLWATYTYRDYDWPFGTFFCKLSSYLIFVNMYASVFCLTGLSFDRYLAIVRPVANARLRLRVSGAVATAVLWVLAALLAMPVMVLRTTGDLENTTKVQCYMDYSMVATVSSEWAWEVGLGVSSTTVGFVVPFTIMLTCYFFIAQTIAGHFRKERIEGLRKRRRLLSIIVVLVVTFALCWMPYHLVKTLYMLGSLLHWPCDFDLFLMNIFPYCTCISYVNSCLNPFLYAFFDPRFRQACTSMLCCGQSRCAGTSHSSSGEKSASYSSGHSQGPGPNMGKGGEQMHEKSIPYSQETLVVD
# ASSAY OVERVIEW: Determination of agonism on the human apelin receptor by a calcium fluorescence assay (FLIPR)
# Type: cell-based
# CONDITION LABEL: HEK293 cells stably transfected with human apelin receptor and Giaq protein, Fluo-4 calcium fluorescence, read-out: EC50 (APJ agonism)
pEC50: −log10 of the molar value.
Assign class by pEC50: not lower than 6 means T; lower than 6 means F.

Req: Decide: is the reported value of pEC50 for CCC(CC)n1c(Cc2cccs2)nc2cc(C(=O)N[C@@H](CC(C)C)C(=O)N3CCC(N4CCC(C)CC4)CC3)ccc21 [Example 282] equal to or greater than 6?
Resp: T

Req: Decide: is the reported value of pEC50 for CCC(CC)n1c(Cc2cccs2)nc2cc(C(=O)N[C@@H](CC(C)C)C(=O)N3CCN(Cc4ccc5c(c4)OCO5)CC3)ccc21 [Example 311] equal to or greater than 6?
Resp: F

Req: Decide: is the reported value of pEC50 for CCC(CC)n1c(Cc2cccs2)nc2cc(C(=O)N[C@@H](CC(C)C)C(=O)NCCc3cccc(OC)c3)ccc21 [Example 360] equal to or greater than 6?
Resp: F

Req: Decide: is the reported value of pEC50 for CCC(CC)n1c(Cc2cccs2)nc2cc(C(=O)N[C@@H](CC(C)C)C(=O)Nc3cccc(N(C)C)c3)ccc21 [Example 316] equal to or greater than 6?
Resp: F

Req: Decide: is the reported value of pEC50 for CCC(CC)n1c(Cc2cccs2)nc2cc(C(=O)N[C@@H](CC(C)C)C(=O)NCCN3CCCCC3)ccc21 [Example 233] equal to or greater than 6?
Resp: T

Req: Decide: is the reported value of pEC50 for CCC(CC)n1c(Cc2cccs2)nc2cc(C(=O)N[C@@H](CC(C)C)C(=O)NCCCSC)ccc21 [Example 248] equal to or greater than 6?
Resp: F

Req: Decide: is the reported value of pEC50 for CC(C)C[C@H](NC(=O)c1ccc2c(c1)nc(Cc1ccsc1)n2-c1ccccc1)C(=O)O [Example 136] equal to or greater than 6?
Resp: F

Req: Decide: is the reported value of pEC50 for CC(C)C[C@H](NC(=O)c1ccc2c(c1)nc(Cc1ccco1)n2C1CCCCC1C)C(=O)O (single isomer, unassigned) [Example 419] equal to or greater than 6?
Resp: T

Req: Decide: is the reported value of pEC50 for CC(C)C[C@H](NC(=O)c1ccc2c(c1)nc(Cc1ccoc1)n2C1CCCCC1)C(=O)O [Example 138] equal to or greater than 6?
Resp: F

Req: Decide: is the reported value of pEC50 for CCC(CC)n1c(Cc2cccs2)nc2cc(C(=O)N[C@@H](CC(C)C)C(=O)NCCc3ccccc3OC)ccc21 [Example 362] equal to or greater than 6?
Resp: F

Req: Decide: is the reported value of pEC50 for CCCCC(CC(=O)O)NC(=O)c1ccc2c(c1)nc(Cc1cccs1)n2[C@@H]1CCCC[C@H]1C (single isomer, unassigned) [Example 460] equal to or greater than 6?
Resp: T

Req: Decide: is the reported value of pEC50 for CCC(CC)n1c(Cc2cccs2)nc2cc(C(=O)N[C@H](CO)CC(C)C)ccc21 [Example 209] equal to or greater than 6?
Resp: T
